Sequence of the target: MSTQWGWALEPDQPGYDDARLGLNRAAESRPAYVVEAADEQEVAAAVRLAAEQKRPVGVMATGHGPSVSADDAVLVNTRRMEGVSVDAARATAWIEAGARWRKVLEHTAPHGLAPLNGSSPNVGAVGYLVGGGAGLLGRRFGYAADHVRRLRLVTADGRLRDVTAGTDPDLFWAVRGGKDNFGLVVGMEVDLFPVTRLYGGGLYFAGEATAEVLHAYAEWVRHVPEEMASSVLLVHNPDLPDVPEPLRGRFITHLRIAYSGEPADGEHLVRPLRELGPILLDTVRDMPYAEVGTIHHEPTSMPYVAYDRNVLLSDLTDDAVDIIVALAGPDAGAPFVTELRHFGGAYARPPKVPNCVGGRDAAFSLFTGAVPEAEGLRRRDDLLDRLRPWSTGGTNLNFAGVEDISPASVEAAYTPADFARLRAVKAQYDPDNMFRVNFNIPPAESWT
assay-endpoint: Kd (µM)
API: value field is a number in µM; no unit string.

Kd for "CO[C@@]12[C@H](COC(N)=O)C3=C(C(=O)C(C)=C(N)C3=O)N1C[C@@H]1N[C@@H]12" ? 15.9
